Conditions: in ethyl acetate, 303.15 K
attribute_measured: solubility (mole fraction)

Task item: Would you kindly share the measured solubility (mole fraction) for "Cl.O=C(O)c1cn(-c2ccc(F)cc2)c2cc(N3CCNCC3)c(F)cc2c1=O" ?
Reply: 0.00719

====

Conditions: in methanol, 293.15 K
attribute_measured: solubility (mole fraction)
Reply: number alone, nothing else.

Task item: Would you kindly share the measured solubility (mole fraction) for "Cl.O=C(O)c1cn(-c2ccc(F)cc2)c2cc(N3CCNCC3)c(F)cc2c1=O" ?
Reply: 0.00234

====

Details: in n-butanol, 308.15 K
attribute_measured: solubility (mole fraction)
Reply: number alone, nothing else.

Task item: Would you kindly share the measured solubility (mole fraction) for "Cl.O=C(O)c1cn(-c2ccc(F)cc2)c2cc(N3CCNCC3)c(F)cc2c1=O" ?
Reply: 0.00281
